MEASUREMENT_CONTEXT: in isopropanol, 303.15 K
MEASUREMENT_LABEL: solubility (mole fraction)

| SMILES_REPR | VALUE_OBSERVED |
| --- | --- |
| Nc1nc(NC2CC2)c2ncn([C@H]3C=C[C@@H](CO)C3)c2n1 | 0.00744 |

----------
MEASUREMENT_CONTEXT: in methanol, 318.15 K

| SMILES_REPR | solubility (mole fraction) |
| --- | --- |
| Nc1nc(NC2CC2)c2ncn([C@H]3C=C[C@@H](CO)C3)c2n1 | 0.0209 |

----------
MEASUREMENT_CONTEXT: in water, 303.15 K
MEASUREMENT_LABEL: solubility (mole fraction)

| SMILES_REPR | VALUE_OBSERVED |
| --- | --- |
| Nc1nc(NC2CC2)c2ncn([C@H]3C=C[C@@H](CO)C3)c2n1 | 0.000436 |

----------
MEASUREMENT_CONTEXT: in n-pentanol, 323.15 K
MEASUREMENT_LABEL: solubility (mole fraction)

| SMILES_REPR | VALUE_OBSERVED |
| --- | --- |
| Nc1nc(NC2CC2)c2ncn([C@H]3C=C[C@@H](CO)C3)c2n1 | 0.0277 |

----------
MEASUREMENT_CONTEXT: in ethanol, 308.15 K
MEASUREMENT_LABEL: solubility (mole fraction)

| SMILES_REPR | VALUE_OBSERVED |
| --- | --- |
| Nc1nc(NC2CC2)c2ncn([C@H]3C=C[C@@H](CO)C3)c2n1 | 0.0123 |

----------
MEASUREMENT_CONTEXT: in methyl acetate, 298.15 K
MEASUREMENT_LABEL: solubility (mole fraction)

| SMILES_REPR | VALUE_OBSERVED |
| --- | --- |
| Nc1nc(NC2CC2)c2ncn([C@H]3C=C[C@@H](CO)C3)c2n1 | 0.0014 |

----------
MEASUREMENT_CONTEXT: in methyl acetate, 308.15 K

| SMILES_REPR | solubility (mole fraction) |
| --- | --- |
| Nc1nc(NC2CC2)c2ncn([C@H]3C=C[C@@H](CO)C3)c2n1 | 0.00176 |

----------
MEASUREMENT_CONTEXT: in methanol, 303.15 K
MEASUREMENT_LABEL: solubility (mole fraction)

| SMILES_REPR | MEASUREMENT_LABEL | VALUE_OBSERVED |
| --- | --- | --- |
| Nc1nc(NC2CC2)c2ncn([C@H]3C=C[C@@H](CO)C3)c2n1 | solubility (mole fraction) | 0.0126 |

----------
MEASUREMENT_CONTEXT: in n-propanol, 298.15 K

| SMILES_REPR | solubility (mole fraction) |
| --- | --- |
| Nc1nc(NC2CC2)c2ncn([C@H]3C=C[C@@H](CO)C3)c2n1 | 0.0119 |

----------
MEASUREMENT_CONTEXT: in ethanol, 288.15 K
MEASUREMENT_LABEL: solubility (mole fraction)

| SMILES_REPR | VALUE_OBSERVED |
| --- | --- |
| Nc1nc(NC2CC2)c2ncn([C@H]3C=C[C@@H](CO)C3)c2n1 | 0.00716 |
